Give protein stability index for every item shown.
B1: PCDHGA10 (parent)
chain: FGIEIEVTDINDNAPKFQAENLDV

Variants of: B1
Assay notes: protein stability index of a GFP-peptide fusion (GPS, HEK-293T) (PSI 1-6); higher = more stable;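 further: lentivirally expressed fusions sorted by FACS into six bins by GFP to DsRed ratio, PSI derived from sequencing read proportions per bin multiplied by bin number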
Experimental context: c terminus: a fixed tail appended
I'd appreciate a reply containing only the number, no unit.

Looking for the measured protein stability index of `I5W` , can you help?
3.05

Could you tell me which protein stability index is on file for `A14G` ?
3.08

Recorded protein stability index for `G2Q` , please?
2.09

Please look up its protein stability index: `F1I`
2.57

Item `A19R` has what recorded protein stability index?
3

Return reported protein stability index; argument: `A19T`
2.84

Given the entry `E6C` , report its measured protein stability index.
1.58

Entry under review: `D9C` . Reported protein stability index?
1.95

If you can, please state the reported protein stability index value of `K16V` .
2.64

Fill in the blank: the reported protein stability index of `Q18L` is ____.
2.26

What does the data say about its protein stability index? Entry: `I10L`
2.63

Look up protein stability index: `D23K`
2.08

Would you mind telling me what protein stability index value was observed for `L22Q` ?
3.71

So what does the record say about protein stability index for `T8M` ?
2.19

# query: protein stability index of entry `E20H`
2.02

# query: protein stability index of entry `D9H`
1.81

Quick check: protein stability index of `L22V` ?
3.42

Given `E6S` , state its recorded protein stability index.
2.69

Look up protein stability index: `E4L`
2.28

Can you look up the measured protein stability index of `L22M` for me?
2.84

Reported protein stability index, variant `D12E` : ____
3.13

Given `E20D` , state its recorded protein stability index.
2.82

Bench note: what protein stability index did `G2N` show?
1.9

Can you share its protein stability index? I mean this variant: `N11G`
2.66

Look up protein stability index: `N11R`
2.73

Given the entry `N21I` , report its measured protein stability index.
1.84

Would you mind telling me what protein stability index value was observed for `A14T` ?
2.9

Data request, read-out protein stability index, for `F17Y`
3.18

Can you share its protein stability index? I mean this variant: `V24F`
2.64

Item `V7T` has what recorded protein stability index?
4.45

Suppose we examine the variant `A14V` ; what protein stability index value has been reported?
3.4

Quick check: protein stability index of `E4G` ?
3.42

Quick one: protein stability index of `V7A` ?
4.33

Dear colleague, I am looking for the recorded protein stability index of the following variant: `N21F`
1.84
